Parameter kcat: see the listing below.
# Substrate: C[N+](C)(C)CCOP(=O)(O)OP(=O)([O-])OC[C@H]1O[C@@H](n2ccc(N)nc2=O)[C@H](O)[C@@H]1O
# assay-protocol: colorimetric Pi assay coupled to alkaline phosphatase, saturation kinetics
# Assay type: biochemical, Homo sapiens
# recorded-conditions: 5 mM MnCl2, pH 7.5, 37°C
Provide the reading as a plain figure in s⁻¹.

Record excerpt, results attached:
{"protein": "human ADPRibase-Mn (Homo sapiens) (protein, full length, 342 aa; expressed as GST fusion (pGEX-6P-3), GST cut off with PreScission protease, 11-aa N-terminal extension …) MDDKPNPEALSDSSERLFSFGVIADVQFADLEDGFNFQGTRRRYYRHSLLHLQGAIEDWNNESSMPCCVLQLGDIIDGYNAQYNASKKSLELVMDMFKRLKVPVHHTWGNHEFYNFSREYLTHSKLNTKFLEDQIVHHPETMPSEDYYAYHFVPFPKFRFILLDAYDLSVLGVDQSSPKYEQCMKILREHNPNTELNSPQGLSEPQFVQFNGGFSQEQLNWLNEVLTFSDTNQEKVVIVSHLPIYPDASDNVCLAWNYRDALAVIWSHECVVCFFAGHTHDGGYSEDPFGVYHVNLEGVIETAPDSQAFGTVHVYPDKMMLKGRGRVPDRIMNYKKERAFHC", "kcat, s⁻¹": 50}
{"protein": "human ADPRibase-Mn (Homo sapiens; Q27H) (protein, full length, 342 aa; expressed as GST fusion (pGEX-6P-3), GST cut off with PreScission protease, 11-aa N-terminal extension …) MDDKPNPEALSDSSERLFSFGVIADVHFADLEDGFNFQGTRRRYYRHSLLHLQGAIEDWNNESSMPCCVLQLGDIIDGYNAQYNASKKSLELVMDMFKRLKVPVHHTWGNHEFYNFSREYLTHSKLNTKFLEDQIVHHPETMPSEDYYAYHFVPFPKFRFILLDAYDLSVLGVDQSSPKYEQCMKILREHNPNTELNSPQGLSEPQFVQFNGGFSQEQLNWLNEVLTFSDTNQEKVVIVSHLPIYPDASDNVCLAWNYRDALAVIWSHECVVCFFAGHTHDGGYSEDPFGVYHVNLEGVIETAPDSQAFGTVHVYPDKMMLKGRGRVPDRIMNYKKERAFHC", "kcat, s⁻¹": 39}

Consider the protein shown here: human ADPRibase-Mn (Homo sapiens; F210A) (protein, full length, 342 aa; expressed as GST fusion (pGEX-6P-3), GST cut off with PreScission protease, 11-aa N-terminal extension …) MDDKPNPEALSDSSERLFSFGVIADVQFADLEDGFNFQGTRRRYYRHSLLHLQGAIEDWNNESSMPCCVLQLGDIIDGYNAQYNASKKSLELVMDMFKRLKVPVHHTWGNHEFYNFSREYLTHSKLNTKFLEDQIVHHPETMPSEDYYAYHFVPFPKFRFILLDAYDLSVLGVDQSSPKYEQCMKILREHNPNTELNSPQGLSEPQFVQANGGFSQEQLNWLNEVLTFSDTNQEKVVIVSHLPIYPDASDNVCLAWNYRDALAVIWSHECVVCFFAGHTHDGGYSEDPFGVYHVNLEGVIETAPDSQAFGTVHVYPDKMMLKGRGRVPDRIMNYKKERAFHC What is its recorded kcat?
50

How about this protein: human ADPRibase-Mn (Homo sapiens; H111A) (protein, full length, 342 aa; expressed as GST fusion (pGEX-6P-3), GST cut off with PreScission protease, 11-aa N-terminal extension …) MDDKPNPEALSDSSERLFSFGVIADVQFADLEDGFNFQGTRRRYYRHSLLHLQGAIEDWNNESSMPCCVLQLGDIIDGYNAQYNASKKSLELVMDMFKRLKVPVHHTWGNAEFYNFSREYLTHSKLNTKFLEDQIVHHPETMPSEDYYAYHFVPFPKFRFILLDAYDLSVLGVDQSSPKYEQCMKILREHNPNTELNSPQGLSEPQFVQFNGGFSQEQLNWLNEVLTFSDTNQEKVVIVSHLPIYPDASDNVCLAWNYRDALAVIWSHECVVCFFAGHTHDGGYSEDPFGVYHVNLEGVIETAPDSQAFGTVHVYPDKMMLKGRGRVPDRIMNYKKERAFHC
2.2
